- testedOn: human ferroportin (Homo sapiens, UniProt Q9NP59)
- Construct: luciferase reporter (read with the Nano-Glo Luciferase Assay System); expressed in transfected cells; host or cells: CHO cells, stably transfected, expression induced with doxycycline
- procedureDetails: Biological in-vitro ferroportin internalization assay (luciferase reporter)
- Type: cell-based
- studyConditions: average pEC50; stably-transfected CHO cell line expressing human ferroportin tagged to a luciferase reporter; 6 h incubation with test compound
Here, each record is paired with measured pEC50 data.

- compound: "Cn1cnc(-c2nc3c(c(N4CCCCCC4)n2)CCC3)c1 [Compound 97]"
  propertyLabel: "pEC50"
  recordedMeasurement: 7.1

Query compound follows.
Query: What does the data say about its pEC50? Entry: CN(CC(=O)NC(C)(C)C)c1nc(-c2cc(OCCn3ccnc3)ccn2)nc2c1CCC2 [Compound 465]
Result: 8.3

====

- testedOn: human ferroportin (Homo sapiens, UniProt Q9NP59)
- Construct: luciferase reporter (read with the Nano-Glo Luciferase Assay System); expressed in transfected cells; host or cells: CHO cells, stably transfected, expression induced with doxycycline
- Sequence (Q9NP59 1-571): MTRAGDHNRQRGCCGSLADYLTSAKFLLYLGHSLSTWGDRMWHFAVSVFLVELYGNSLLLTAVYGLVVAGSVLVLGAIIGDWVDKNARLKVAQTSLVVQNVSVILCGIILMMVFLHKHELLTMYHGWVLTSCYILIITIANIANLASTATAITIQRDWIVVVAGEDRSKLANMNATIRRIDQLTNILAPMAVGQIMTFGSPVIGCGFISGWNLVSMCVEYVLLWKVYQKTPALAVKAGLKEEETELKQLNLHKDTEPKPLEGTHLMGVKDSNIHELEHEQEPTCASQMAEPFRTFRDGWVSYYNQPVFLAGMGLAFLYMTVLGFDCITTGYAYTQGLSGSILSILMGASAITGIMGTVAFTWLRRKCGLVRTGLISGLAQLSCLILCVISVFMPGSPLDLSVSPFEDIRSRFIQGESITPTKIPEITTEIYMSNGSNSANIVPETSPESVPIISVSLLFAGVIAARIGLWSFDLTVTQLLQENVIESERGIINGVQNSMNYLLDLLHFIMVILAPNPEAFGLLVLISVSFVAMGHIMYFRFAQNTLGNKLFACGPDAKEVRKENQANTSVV
- procedureDetails: Biological in-vitro ferroportin internalization assay (luciferase reporter)
- Format: cell-based
- studyConditions: average pEC50; stably-transfected CHO cell line expressing human ferroportin tagged to a luciferase reporter; 6 h incubation with test compound
- Procedure: The protocol for this assay is generally as described in WO2018/128828, incorporated herein by reference in its entirety. Functional internalization of ferroportin protein was measured using a stably-transfected CHO cell line expressing the human ferroportin tagged to a luciferase reporter. […] Cells were incubated with the test compounds for 6 h, and subsequently luciferase activity was measured using the Nano-Glo Luciferase Assay System and Glomax (Promega, Madison, Wis.). […]
propertyLabel: pEC50
Reply with just the number.

- compoundSmiles: "COCCOc1ccnc(-c2nc3c(c(N(C)CC(=O)Nc4ccc(OC)nc4)n2)CCC3)c1"
  pEC50: 7.5
- compoundSmiles: "COc1ccc(NC(=O)CN(C)c2nc(-c3cc(OC(F)(F)F)ccn3)nc3c2CCC3)cn1"
  pEC50: 6.6
- compoundSmiles: "CCC(C)(C)NC(=O)CN(C)c1nc(-c2cc(OCCO)ccn2)nc2c1CCC2"
  pEC50: 8

Now for a further compound.
Query: Request: pEC50, test system human ferroportin (Homo sapiens, UniProt Q9NP59), entry `COc1ccnc(-c2nc3c(c(N4CCCCCC4)n2)CCC3)c1`
Result: 6.6
